target: biotinylated recombinant human CLL-1 extracellular domain protein, isoform with glutamine at amino acid position 244 (human) (UniProt Q5QGZ9); assay: BLItz, 1:1 model (Q244 per FIG. 12B)
Sequence (Q5QGZ9 65-265): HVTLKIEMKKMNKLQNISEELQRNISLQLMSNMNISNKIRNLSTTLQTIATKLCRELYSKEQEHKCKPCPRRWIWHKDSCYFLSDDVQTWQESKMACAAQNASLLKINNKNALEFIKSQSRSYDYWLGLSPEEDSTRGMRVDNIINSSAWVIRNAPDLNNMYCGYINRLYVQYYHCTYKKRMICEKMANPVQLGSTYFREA
Kd values by entry
The figure you give is taken to be in nM; do not add the unit.

Looking for the measured Kd of Anti-CLL-1 Binder Clone 38 (scFv, not shown: small tags and cut ends) scFv: DIQMTQSPSTLSASVGDRVTITCRASQSISSWLAWYQQKPGKAPKLLIYTASSLQSGVPSRFSGSESGTDFTLTISSLQPEDFATYYCQQSYSTPLTFGGGTKVDIKGGGGSGGGGSGGGGSQVQLVQSGAEVKKPGASVKVSCKASGYTFTGYYMHWVRQAPGQGLEWMGWINPNSGGTNYAQKFQGRVTLTRDTSITTAYLELTSLTSDDTAVYYCARGDTGDFFDHWGQGTLVTVSS , can you help?
14

Moving on to the next binder: Anti-CLL-1 Binder Clone 10 (scFv, not shown: small tags and cut ends) scFv: DIQMTQSPSFLSASVGDRVTITCRASQGISSYLAWYQQKPGKAPKLLIYSASSLQSGVPSRFSGSGSGTDFTLTISSLQPEDFATYYCQQSYNSPTFGQGTRLEIKGGGGSGGGGSGGGGSQVQLVQSGAEVKKPGASVKVSCKASGYTFTGYYMHWVRQAPGQGLEWMGWMNPNSGNTGYAQKFQGRVTMTRNTSISTAYLELTSLTSDDTAVYYCARGDTGDFFDHWGQGTLVTVSS
21

Entry Anti-CLL-1 Binder Clone 40 (scFv, not shown: small tags and cut ends) scFv: QSVLTQPPSVSAAPGQKVTISCSGSSSNIGNNYVSWYQQLPGTAPKLLIYDNNKRPSGIPDRFSGSESGTSATLGITGLQTGDEADYYCGTWDSSLSAWVFGGGTQLIILGGGGSGGGGSGGGGSQVQLQQSGPGLVKPSQTLSLTCAISGDSVSSNSAAWNWIRQSPSRGLEWLGRTHYRSKWYNDYAVSVKSRITISADTSKNQFSLQLNSVTPEDTAVYYCARDRYTVRPDAFDIWGQGTTVTVSS please
14
